- experimental-details: protein stability index of a GFP-peptide fusion (yeast GPS) (PSI 1-4); higher = more stable; sorted into four equal gates, so the index is relative within each strain
- condition-info: pdr5∆
Threshold check on protein stability index: at or above 3 gives class 1, strictly below gives class 0.

sequence-data | assigned-category
VYVTGGRNLGRIGTIVH [RPS4A] | class 0
KDVKAWAGKRLWDQDIA [COR1] | class 1
CSNESFASIPVSNSISR [SNU114] | class 0
YGFKQEIFDVTSNGLKK [FAS1] | class 1
LSEDELRELDVELIESK [SMC4] | class 1
LRELDVELIESKINELS [SMC4] | class 1
FSSNERYFFWLQEKNSG [RPN13] | class 0
DIYFKLKKLEKEYELLT [RPT3] | class 0
TLFVRDQDSAVVSSNIK [QCR2] | class 0
SIGYETELKKITDKTIK [IRR1] | class 1
DRTQDRADVEDESNDID [RPC37] | class 1
EKRIQYAKDILQKEFLP [RPB2] | class 0
PSIIFIDEVDSIATKRF [RPT3] | class 1
TFVYILEKLIFDMTNHY [SRB8] | class 0
RKRVYNIKFLSKLEGTI [ESC2] | class 1
SDKTIVPTSIQTKRWPT [SIN4] | class 0
LTLDPRYIWRSLKDLSS [RPN3] | class 0
NSQERVQDLGSAISVTN [SIR2] | class 1
VKAFLSIFEDAIKELNY [NUT1] | class 0

----------
- experimental-details: protein stability index of a GFP-peptide fusion (yeast GPS) (PSI 1-4); higher = more stable; sorted into four equal gates, so the index is relative within each strain
- condition-info: ubr1∆
Class yes: protein stability index at least 3. Class no: protein stability index below 3.

sequence-data | assigned-category
ELENSSPELKAELRPLQ [RPS7A] | yes
QQQQQQNNSTGSSSIIY [SSN2] | no
EREQPQENKNIDDENIT [SRB4] | yes
MRLIKRVRAESLHSNSF [YJL039C/NUP192] | no
CSKAMGDLASLVLLNGR [RPP1] | no
DRFPLKLREPVARFLHF [ITC1] | no
KGGIIASVGDILKTLER [YML031W/NDC1] | no
KLREPVARFLHFNGIRR [ITC1] | no
PNINTWQQVTALAQQKL [GAL11] | no
ALEYIGAKVKTMRRQKL [RET1] | no
STEYMMQFAKSKTVKVL [RPN6] | no
LPLFYDLLNAASIESAD [IRR1] | no
VDKELLEPGCSVLLHHK [RPT2] | no
AARKAEKAKSAGTQSSK [RPL24A] | yes
KKSQCKKKTTLEDFENF [YIL149C/MLP2] | yes
HFVQEEPLAFYLEESFT [RGR1] | no
QPDENTKEMDEVEEDDE [SWI3] | yes
NALTVGDFDKFDSLIKV [RPN9] | no
KLTRELEKKFQDRHVIF [RPS7A] | yes
LTLKEAELLVLKILKQV [PUP2] | no
AYGVLDSNYKWDLSVED [PRE2] | yes
SRMTVGKMIELISGKAG [RET1] | yes
DEDKFKKLKPIVAKYDP [PRP28] | no
DQKTGRAKSSSHLFNEY [RPN4] | yes
NKYQYSLKQYAGNLITT [SRP68] | no
HLIPNEIKGASETPLQK [RPN4] | no
LQEKEQLYFKKKVNYKV [ISW2] | yes
EFKSIEIEMKNKLEKLN [SMC4] | no
LSRPSLPKIKTVRKSIA [RPL35A] | no
PQMQCALQNLSQLPITP [YGL172W/NUP49] | no
ISGNPPLLYNSLCTVWK [SRB5] | no
RAQHVKKLATRPKCGDC [RPL34A] | yes
GDKFSEDFRIQFKTTIK [UBP6] | no
SSIVAIDWASPEYGRII [YGL100W/SEH1] | no
TPSDLSESGSKLNVDQF [POP1] | yes
WGEQKKAMSSRAGVSQV [RPB2] | yes
MGEAQTGANFDDVERGV [REC8] | yes
TQEFSKNYTTETDNEMN [SIR3] | yes

----------
Recorded protein stability index for the following sequences
- experimental-details: protein stability index of a GFP-peptide fusion (yeast GPS) (PSI 1-4); higher = more stable; sorted into four equal gates, so the index is relative within each strain
- condition-info: pdr5∆
experimental-endpoint: protein stability index

sequence-data | experimental-value
ENNDDALDLDLDLFDPD [MED4] | 2.98
VSKEGLYQLVDIRDSSC [YMR129W/POM152] | 2.92
DIEEGPITSKSWEEGTR [MCD1] | 2.92
STIDANFADKYDEVKKH [RPL8A] | 3.08
ISRERDLFTHLWNQWLK [SRP68] | 3.06
ILTDLVNYRHFKAMEDV [ITC1] | 2.98
YLQETAISGKKTTYYYY [RPC82] | 3.02
ESAPITAEDSWAVISAF [RPB2] | 2.99
DTLLLLPTDGGLTSRLQ [POP4] | 3.06
DNGGTILGIAGEDFAVL [PRE7] | 3.08
SKAPAEKKPAAKKTSTS [HTB1] | 3.01
RDVYVFDKVEVQVRSVM [DIS3] | 3
ISLVDDIINAVNEIMYK [MTW1] | 2.91
DSSLQPEYFESPLQSSK [YMR129W/POM152] | 2.98
DEESLVKYMPEQKITEI [RPO21] | 2.94

----------
- experimental-details: protein stability index of a GFP-peptide fusion (yeast GPS) (PSI 1-4); higher = more stable; sorted into four equal gates, so the index is relative within each strain
- condition-info: san1∆
Here, each record is paired with measured protein stability index data.
experimental-endpoint: protein stability index

sequence-data | experimental-value
EPIEESSQNNSELAPIE [IRR1] | 2.73
LMEIHNILKVDSNSSSS [RGR1] | 2.63
CNEEQTLEAKIGGLLSK [RPO31] | 2.99
LEDELYHTNPGHSQFTS [RPN4] | 3.05
ALEEAKLSDNISICMIL [YDL116W/NUP84] | 3.04
KGDGMTSAVASIGSIYQ [RPN1] | 2.57
GSLACDTADEAKTLIPS [RPB4] | 3.33
RKLFPNWIKPSDSEIPP [PRP8] | 2.91
ARVILYLKNVLFAFNGV [SIN4] | 1.42
FDDLLKPVYKGKKLTDE [RET1] | 3.32
SFVHGVVGQLFQIDNDN [SMC2] | 3.13
EAVEIPVNSADGKEDVE [SME1] | 2.77
LPLPPSVEWMKVSPSMC [SIN4] | 1.69
SKRLPLRFPEHTSSGSV [BRR2] | 2.74
NQSNLNGGNNTQQPGTN [SNF2] | 3.08
LEDMVFPTEIVGKRVRY [RPS7B] | 2.5
YMQRTVEEAHDFNMKLA [RPB2] | 3.02
IYNSASKASMQKEQNVN [YCS4] | 1.58
HWPLNWYLILSIISSKT [RGR1] | 1.4
AQKNTQSYGGRPYGVGL [PRE5] | 3.23
FVKFLSKKGSLENNIRE [RPL10] | 3.11
KNGLYQEAFKIYQHLAS [SRP72] | 2.33
NMFGDYSNEPFNTNFDD [SNF6] | 3.06
PHGFPSRMTVGKMIELI [RET1] | 2.77
FDKVIYHLHPTFANPNR [TAF14] | 1.43

----------
- experimental-details: protein stability index of a GFP-peptide fusion (yeast GPS) (PSI 1-4); higher = more stable; sorted into four equal gates, so the index is relative within each strain
- condition-info: pdr5∆
Could you label it 1 if measured protein stability index is 3 or higher, and 0 otherwise?

sequence-data | assigned-category
FIANEGVHTGQFIYAGK [RPL2A] | 0
WVNMLLISSSGPIKTPV [FAS2] | 0
KRLLYTRRFVNVTLVNG [RPS30A] | 0
NLENMSIQDTSTVAKNV [YCG1] | 1
NKIDQSLQYIERQQDEL [YJL041W/NSP1] | 1
KLNKKLQHLRSRCHLVT [SRP68] | 1
KPQEIKDILVKTGITKK [PRE9] | 1
GANTSAAQTLLQMDYKD [PRE9] | 1
GIACAGKGLQSAIDVLD [RPN2] | 0
PNNASSHISASASPHLA [SNF2] | 0
SPGSPAYSPKQDEQKHN [RPO21] | 1
STYKHDRGIANIRNNIE [SRB4] | 1
GGAYTVSTAAAATVRST [RPL43A] | 0
DKGAVGPNNFIWPAEDA [MED4] | 1
RIFAIAFTRKQANQVKR [RPS1A] | 0
KTPLLKQYLSASFSLKN [RPL6A] | 0
FISNLPNVSDKYYLEES [NUT1] | 0
SQLAQVAAFVNNYPNVE [BRR2] | 0
HPPDFKRMLLSLSEFAR [SNF2] | 0
PAKVEDVQKSSDSSSED [YLR335W/NUP2] | 0
QEEEGELEHLTKKSKLE [DSN1] | 1
STEYMMQFAKSKTVKVL [RPN6] | 0
KEKWPSLELQSFQKIPL [YML103C/NUP188] | 0
SRGGVTQVRVEFLEDTS [RPS28A] | 1
IKETKENDEEFYKNKYS [RPN2] | 0
LNCCGSVARVEDHDVHS [IRR1] | 0
KAIPTFSFGKPFFSSNT [YIL149C/MLP2] | 1
TVQENELLKSSLQKAGS [AAR2] | 1
DFKNEESLSEEHASLLV [MED8] | 1
PHLPFSKSENPVLSTIA [SWI3] | 0
DTNAPVAATITSSQKEP [SRB8] | 0
VGKLFRVGVVSILEAGD [RPL30] | 0
HKYVLTLQLYMVHREFL [RGR1] | 0
